TGT: T1, MC1 receptor (UniProt Q01726 1-317, limits assumed)
T1 construct: whole, on cells; also called melanocortin receptor subtype 1; melanocortin receptor 1
PROTOCOL NOTES: 125I-NDP-α-MSH displacement, BHK-MC1 membranes (Assay IV);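 further: membrane incubations stopped by filtration, retained radioactivity counted, Ki fitted by nonlinear regression to binding curves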
Positions of bridges follow the written chain, without caps; N, C: chain ends. Non-standard residues stand in square brackets, D forms with d. Primed or numbered codes have the meaning given here. *: point of attachment. X2 = (2-(2-(16-(tetrazol-5-yl)hexadecanoylamino)ethoxy)ethoxy)acetyl, O=C(CCCCCCCCCCCCCCCc1nn[nH]n1)NCCOCCOCC(=O)*; X6 = (2-(2-(17-carboxyheptadecanoylamino)ethoxy)ethoxy)acetyl, O=C(O)CCCCCCCCCCCCCCCCC(=O)NCCOCCOCC(=O)*; X3 = (2-(2-(15-carboxypentadecanoylamino)ethoxy)ethoxy)acetyl, O=C(O)CCCCCCCCCCCCCCC(=O)NCCOCCOCC(=O)*; biscarboxymethyl = Lys(biscarboxymethyl) = Nepsilon-bis(carboxymethyl)-L-lysine; biscarboxymethyl″ = N6-bis(carboxymethyl) on L-lysine; hCys = N[C@@H](CCS)C(=O)O; Orn = NCCC[C@H](N)C(=O)O
As shown below, each of these binders has a reported Ki value.

# BINDER, QUANTITY UNIT, Ki
data = [
    ("Ac-[Orn]H[dF]RWDPPREK(biscarboxymethyl)K(X3)-NH2 (lactam 1-6)", "nM", 2140),
    ("Ac-[hCys]S[dF]RWCPPKEK(biscarboxymethyl″)K(X2)-NH2 (disulfide 1-6)", "nM", 2060),
    ("Ac-[Orn]H[dF]RWDPPREK(biscarboxymethyl)K(X6)-NH2 (lactam 1-6)", "nM", 1940),
    ("Ac-[Orn]H[dF]RWDPPHEK(biscarboxymethyl)K(X3)-NH2 (lactam 1-6)", "nM", 8600),
    ("Ac-[Orn]H[dF]RWDPSSSK(biscarboxymethyl)SSK(X3)-NH2 (lactam 1-6)", "nM", 3890),
]
